All values here come from paper PMC8320615.

Catalogue of compounds with associated log10(IC50 at 48 h)
- assay_protocol: MTT cytotoxicity on HK-2 cells in HK-2/HepaRG co-culture
- Format: cell-based
- assay_setup: human, HK-2 cells in co-culture with HepaRG cells (IdMOC plates)
Recorded IC50 at 48 h (log10, µM)

In the examples that follow, each entry is paired with its recorded log10(IC50 at 48 h).
Cc1cc(O)c2c(c1)C(=O)c1cc(O)cc(O)c1C2=O    2.09
Cc1cc(O)c2c(c1)C(=O)c1cccc(O)c1C2=O    1.97
O=C(O)c1cc(O)c2c(c1)C(=O)c1cccc(O)c1C2=O    1.64
COc1c(O)c(C)cc2c1C(=O)c1c(cc(O)c(O)c1O)C2=O    2.45
COc1cc(O)c2c(c1)C(=O)c1cc(C)cc(O)c1C2=O    2.29
O=C1c2cccc(O)c2C(=O)c2c(O)cc(CO)cc21    2.13
COc1c(O)cc2c(c1O)C(=O)c1c(cc(C)c(O)c1OC)C2=O [No. 5, Aurantio-obtusin]    2.07
O=C1c2ccccc2C(=O)c2ccccc21    2.14
COc1c(O)c(C)cc2c1C(=O)c1c(O)cccc1C2=O    2.59

Could you now consider this next compound?
**Query** Indicate its recorded log10(IC50 at 48 h); the compound in question is `COc1cc2c(c(OC)c1OC)C(=O)c1c(cc(C)c(O)c1OC)C2=O`
**Result** 1.53

* * *

Reported values of pIC50 for individual entries
- System: HepaRG cells
- assay_protocol: MTT cytotoxicity on HepaRG cells in HK-2/HepaRG co-culture
- Assay type: cell-based
- assay_setup: read-out: Hepatic cytotoxicity IC50 HepaRG 24 h; co-culture, 24 h, MTT
Quick note: pIC50 values are minus log10 of concentrations in mol/L.

COc1cc2c(c(O)c1OC)C(=O)c1c(cc(C)c(O[C@@H]3O[C@H](CO)[C@@H](O)[C@H](O)[C@H]3O)c1OC)C2=O    3.75
COc1c(O[C@@H]2O[C@H](CO)[C@@H](O)[C@H](O)[C@H]2O)cc2c(c1O)C(=O)c1c(cc(C)c(O)c1OC)C2=O [No. 20, Glucoaurantio-obtusin]    3.81

Consider now this further compound.
**Query** Kindly indicate its recorded pIC50. Item: COc1c(O[C@@H]2O[C@H](CO)[C@@H](O)[C@H](O)[C@H]2O)c(C)cc2c1C(=O)c1c(O)cccc1C2=O [No. 16, Obtusifoline-2-O-β-D-glucoside]
**Result** 3.96

* * *

// values below are reported IC50 at 48 h
- assay_protocol: MTT cytotoxicity on HepaRG cells in HK-2/HepaRG co-culture
- Type: cell-based
- assay_setup: human, HepaRG cells in co-culture with HK-2 cells (IdMOC plates)
Kindly answer with a numeric value in µM, unit omitted.

Recorded results for 5 compounds are shown here.
O=C1c2ccccc2C(=O)c2ccccc21 [No. 17, 9,10-Anthracenedione]    84.4
O=C1c2cccc(O)c2C(=O)c2c(O)cc(CO)cc21 [No. 10, Aloe-emodin]    96.2
COc1c(O)c(C)cc2c1C(=O)c1c(O)cccc1C2=O [No. 3, Obtusifoline]    35
COc1cc(O)c2c(c1)C(=O)c1cc(C)cc(O)c1C2=O [No. 12, Physcion]    73.6
O=C(O)c1cc(O)c2c(c1)C(=O)c1cccc(O)c1C2=O [No. 11, Rhein]    36.1

Now consider the entry below.
**Query** Read the entry COc1c(O)cc2c(c1O)C(=O)c1c(cc(C)c(O)c1OC)C2=O [No. 5, Aurantio-obtusin] and write its reported IC50 at 48 h.
**Result** 75.5
